Assign CTG-3D luminescence at 96 h to each entry below.
System: HCI-015 (organoid from a triple-negative breast cancer xenograft)
Experiment: CTG-3D luminescence at 96 h relative to day-0 seeding control (ratio to day 0); higher = more growth / less cytotoxicity; PDxO 3D drug screen, 96 h, CTG-3D normalised to day-0 seeding control.
Conditions: 625 fM; days in culture: 172
Give bare numbers.

For orientation, consider the following solved cases.
{"molecule": "COc1cccc2c1C(=O)c1c(O)c3c(c(O)c1C2=O)C[C@@](O)(C(=O)CO)C[C@@H]3O[C@H]1C[C@H](N)[C@H](O)[C@H](C)O1", "quantity": "CTG-3D luminescence at 96 h", "experimental_value": 2.35}
{"molecule": "C[C@]12CC[C@@H]3c4ccc(O)cc4C[C@@H](CCCCCCCCC[S+]([O-])CCCC(F)(F)C(F)(F)F)[C@H]3[C@@H]1CC[C@@H]2O (some centres undefined)", "quantity": "CTG-3D luminescence at 96 h", "experimental_value": 3.06}
{"molecule": "CS(=O)(=O)c1ccc(C(=O)Nc2ccc(Cl)c(-c3ccccn3)c2)c(Cl)c1", "quantity": "CTG-3D luminescence at 96 h", "experimental_value": 3.01}

// next entry
Returns the measured CTG-3D luminescence at 96 h for the input molecule. Input: `CCc1c2c(nc3ccc(O)cc13)-c1cc3c(c(=O)n1C2)COC(=O)[C@]3(O)CC`
2.79
